experiment: Effect of concentration on the stability of the solution (purity over time); settings: 3 wt %; in water at 25° C.
The compounds listed here are annotated with their Purity at Day 28.
recorded.metric: Purity at Day 28 (%)

[
  {
    "compound": "CCN(CC)CCOC(=O)CC1=C(C)C(=Cc2ccc([S+](C)[O-])cc2)c2ccc(F)cc21.Cl (stereo not drawn)",
    "assay.result": 93.1
  },
  {
    "compound": "CCN(CC)CCOC(=O)C(C)c1ccc2oc(-c3ccc(Cl)cc3)nc2c1.Cl (stereo not drawn)",
    "assay.result": 92.8
  },
  {
    "compound": "CCN(CC)CCOC(=O)Cc1c(C)n(C(=O)c2ccc(Cl)cc2)c2ccc(OC)cc12.Cl",
    "assay.result": 94.1
  }
]

---

assay: Effect of temperature (and pH) on the stability of the solution (purity); assay type: physicochemical; details: 7% solution in water, pH 7.0, day 0
The compounds listed here are annotated with their Purity(%) at day 0.

[
  {
    "compound": "CCN(CC)CCOC(=O)C(C)c1ccc2oc(-c3ccc(Cl)cc3)nc2c1.Cl (centres unmarked)",
    "Purity(%) at day 0": "98.0 ± 0.2%"
  },
  {
    "compound": "CCN(CC)CCOC(=O)Cc1ccc(C(=O)c2ccc(C)cc2)n1C.Cl",
    "Purity(%) at day 0": "97.4 ± 0.3%"
  },
  {
    "compound": "CCN(CC)CCOC(=O)COc1nn(Cc2ccccc2)c2ccccc12.Cl",
    "Purity(%) at day 0": "97.5 ± 0.3%"
  },
  {
    "compound": "CCN(CC)CCOC(=O)c1cc(-c2ccc(F)cc2F)ccc1OC(C)=O.Cl",
    "Purity(%) at day 0": "99.1%"
  },
  {
    "compound": "CCN(CC)CCOC(=O)CC1=C(C)C(=Cc2ccc([S+](C)[O-])cc2)c2ccc(F)cc21.Cl (centres unmarked)",
    "Purity(%) at day 0": "97.3 ± 0.3%"
  }
]

---

assay: Effect of concentration on the stability of the solution (purity over time); conditions: 0.1 wt %; in water at 25° C.
The compounds listed here are annotated with their Purity at Day 14.

[
  {
    "compound": "CCN(CC)CCOC(=O)CCc1ccc2cc(OC)ccc2c1.Cl",
    "Purity at Day 14 (%)": 91.1
  },
  {
    "compound": "CCN(CC)CCOC(=O)Cc1ccc(C(=O)c2ccc(C)cc2)n1C.Cl",
    "Purity at Day 14 (%)": 88.3
  },
  {
    "compound": "CCN(CC)CCOC(=O)[C@H](C)c1ccc2cc(OC)ccc2c1.Cl (racemic)",
    "Purity at Day 14 (%)": 96.1
  },
  {
    "compound": "CCN(CC)CCOC(=O)C(C)c1ccc2oc(-c3ccc(Cl)cc3)nc2c1.Cl (centres unmarked)",
    "Purity at Day 14 (%)": 91.1
  },
  {
    "compound": "CCN(CC)CCOC(=O)CC1=C(C)C(=Cc2ccc([S+](C)[O-])cc2)c2ccc(F)cc21.Cl (centres unmarked)",
    "Purity at Day 14 (%)": 89.8
  }
]

---

experiment: Stability of the pure HPDs (dry solid) at 25° C./RH 60%; assay type: physicochemical; settings: pure HPD, 25° C./RH 60%, 18 month
recorded.metric: Purity

[
  {
    "molecule": "CCN(CC)CCOC(=O)C(C)c1ccc(-c2ccccc2)c(F)c1.Cl (centres unmarked)",
    "assay.result": 98.1
  },
  {
    "molecule": "CCN(CC)CCOC(=O)[C@H](C)c1ccc2cc(OC)ccc2c1.O=C(O)CC(O)(CC(=O)O)C(=O)O (racemic)",
    "assay.result": 97.9
  },
  {
    "molecule": "CC(O)C(=O)O.CCN(CC)CCOC(=O)c1ccccc1OC(C)=O",
    "assay.result": 97.3
  },
  {
    "molecule": "CCN(CC)CCOC(=O)[C@H](C)c1ccc2cc(OC)ccc2c1.Cl",
    "assay.result": 98.1
  },
  {
    "molecule": "CCN(CC)CCOC(=O)[C@H](C)c1ccc(CC(C)C)cc1.Cl",
    "assay.result": 97.9
  },
  {
    "molecule": "CCCCC(=O)O.CCN(CC)CCOC(=O)c1ccccc1OC(C)=O",
    "assay.result": 97.9
  },
  {
    "molecule": "CCN(CC)CCOC(=O)[C@H](C)c1ccc(-c2ccccc2)c(F)c1.Cl",
    "assay.result": 98.1
  },
  {
    "molecule": "Br.CCN(CC)CCOC(=O)C(C)c1ccc2cc(OC)ccc2c1 (racemic)",
    "assay.result": 97.9
  }
]

---

assay: Effect of concentration on the stability of the solution (purity over time); details: 1 wt % in 50% ethanol, 25° C.

[
  {
    "compound": "CC(C)(C)OC(=O)C(N)Cc1ccccc1 (centres unmarked) [t-Butyl 2-amino-3-phenylpropanoate, reference compound]",
    "Purity (%) at hr 24": 96.7
  },
  {
    "compound": "CC(C)OC(=O)C(N)Cc1ccccc1 (centres unmarked) [Isopropyl 2-amino-3-phenylpropanoate, reference compound]",
    "Purity (%) at hr 24": 98.5
  },
  {
    "compound": "CC(C)OC(=O)c1ccccc1 [Isopropyl benzoate, reference compound]",
    "Purity (%) at hr 24": 98.4
  },
  {
    "compound": "CC(C)(C)OC(=O)c1ccccc1 [t-Butyl benzoate, reference compound]",
    "Purity (%) at hr 24": 1.6
  },
  {
    "compound": "CCOC(=O)c1ccccc1 [Ethyl benzoate, reference compound]",
    "Purity (%) at hr 24": 97.8
  }
]

---

The compounds listed here are annotated with their Purity (%) at day 21 (60° C.).
assay: Effect of temperature (and pH) on the stability of the solution (purity); assay type: physicochemical; settings: 7% solution in water, pH 4.3, day 21, 60° C.

[
  {
    "compound": "CCN(CC)CCOC(=O)CC1=C(C)C(=Cc2ccc([S+](C)[O-])cc2)c2ccc(F)cc21.Cl (stereo not drawn)",
    "unit.descriptor": "%",
    "Purity (%) at day 21 (60° C.)": 16.8
  },
  {
    "compound": "CCN(CC)CCOC(=O)Cc1c(C)n(C(=O)c2ccc(Cl)cc2)c2ccc(OC)cc12.Cl",
    "unit.descriptor": "%",
    "Purity (%) at day 21 (60° C.)": 17.7
  },
  {
    "compound": "CCN(CC)CCOC(=O)C(C)c1ccc(-c2ccccc2)c(F)c1.Cl (racemic)",
    "unit.descriptor": "%",
    "Purity (%) at day 21 (60° C.)": 18.3
  },
  {
    "compound": "CCN(CC)CCOC(=O)C(C)c1ccc2oc(-c3ccc(Cl)cc3)nc2c1.Cl (stereo not drawn)",
    "unit.descriptor": "%",
    "Purity (%) at day 21 (60° C.)": 17.7
  },
  {
    "compound": "CCN(CC)CCOC(=O)CCc1ccc2cc(OC)ccc2c1.Cl",
    "unit.descriptor": "%",
    "Purity (%) at day 21 (60° C.)": 27.7
  },
  {
    "compound": "CCN(CC)CCOC(=O)Cc1ccc(C(=O)c2ccc(C)cc2)n1C.Cl",
    "unit.descriptor": "%",
    "Purity (%) at day 21 (60° C.)": 25.8
  },
  {
    "compound": "CCN(CC)CCOC(=O)COc1nn(Cc2ccccc2)c2ccccc12.Cl",
    "unit.descriptor": "%",
    "Purity (%) at day 21 (60° C.)": 25.8
  },
  {
    "compound": "CCN(CC)CCOC(=O)CCc1nc(-c2ccccc2)c(-c2ccccc2)o1.Cl",
    "unit.descriptor": "%",
    "Purity (%) at day 21 (60° C.)": 21.8
  },
  {
    "compound": "CCN(CC)CCOC(=O)COC(=O)Cc1c(C)n(C(=O)c2ccc(Cl)cc2)c2ccc(OC)cc12.Cl",
    "unit.descriptor": "%",
    "Purity (%) at day 21 (60° C.)": 17.9
  }
]

---

The molecules listed here are annotated with their Purity(%) from day 0-28.
experiment: Effect of pH value on the stability of the solution (purity); type: physicochemical; conditions: day 28, pH 3.7, 7% in 25% ethanol, 25° C.
recorded.metric: Purity(%) from day 0-28

[
  {
    "molecule": "CC(C)Cc1ccc(C(C)C(=O)OCCN2CCCCC2)cc1.Cl (racemic)",
    "assay.result": 95.1
  },
  {
    "molecule": "CC(C)Cc1ccc([C@@H](C)C(=O)OCCC2CCNCC2)cc1.Cl (racemic)",
    "assay.result": 95.0
  },
  {
    "molecule": "CC(C)Cc1ccc([C@@H](C)C(=O)OCCN2CCCC2)cc1.Cl (racemic)",
    "assay.result": 95.5
  },
  {
    "molecule": "CCCCN(CCCC)CCOC(=O)C(C)c1ccc(CC(C)C)cc1.Cl (racemic)",
    "assay.result": 96.9
  },
  {
    "molecule": "CC(C)Cc1ccc([C@@H](C)C(=O)OC[C@@H]2CCCN2)cc1.Cl",
    "assay.result": 94.3
  },
  {
    "molecule": "CCN(CC)CCOC(=O)C(C)c1ccc(CC(C)C)cc1.Cl (racemic)",
    "assay.result": 97.2
  },
  {
    "molecule": "CC(C)Cc1ccc([C@@H](C)C(=O)OCCN(C)C)cc1.Cl (racemic)",
    "assay.result": 95.7
  }
]
